- Test system: 786-0 renal
- EXPERIMENT: NCI-60 one-dose screen, 48 h (100 = growth as untreated, 0 = no growth, -100 = all killed)
- RUN CONDITIONS: 10 µM unless noted
This is part of a sample that, as a whole, favours compounds with a hit. Of some 83,000 tested, about 20% had one in any assay.
Outcome: Fulfilled for growth of at least 40%; Not fulfilled for anything lower.

MOLECULE | CLASS NAME
O=C1Nc2ccc(Cl)cc2/C1=C/c1ccc[nH]1 | Fulfilled
Cc1cc(N2CCN(CC(=O)Nc3ccc4c(ccn4Cc4ccccc4)c3)CC2)nc(N2CCOCC2)n1 | Fulfilled
COc1cc(-c2ccc(-c3ccc(C(=N)N)cc3)s2)cc(OC)c1OC | Fulfilled
O=C(/C=C/c1ccco1)Nc1ncc(Cc2cc(Cl)ccc2Cl)s1 | Not fulfilled
Cc1cc(C(=O)CCCC(=O)c2cc(C)c(O)c(C)c2)cc(C)c1O | Fulfilled
Cc1cccc(NC(=O)N/C(N)=N/c2nc3ccccc3s2)c1 | Not fulfilled
NS(=O)(=O)c1ccc(C(=O)NN2C(=O)c3ccccc3C2=O)cc1 | Fulfilled
CCC(C)(C)c1ccc(Nc2ccc(Nc3ccc(C(C)(C)CC)cc3)cc2)cc1 | Fulfilled
O=c1c2ccccc2n(C[C@H]2CO2)c2ccccc12 | Not fulfilled
CCCCCc1ccc(S(=O)(=O)Nc2ccc3nc(N)oc3c2)cc1 | Fulfilled
CC(C)(C)c1ccc(S(=O)(=O)Oc2ccc(-c3sc4cc(OS(=O)(=O)c5ccc(C(C)(C)C)cc5)ccc4c3C(=O)c3ccc(OCCN4CCCCC4)cc3)cc2)cc1 | Fulfilled
O=C(OCc1ccc2c(Cl)cc(Cl)c(O)c2n1)N1CCN(C(=O)c2cc3ccccc3[nH]2)CC1 | Fulfilled
Fc1cccc(CNc2c3ccccc3nc3ccccc23)c1 | Not fulfilled
C=C1C(=O)O[C@H]2[C@H]1CC/C(COC(=O)C(=O)c1c[nH]c3ccc(Cl)cc13)=C\CC[C@@]1(C)O[C@@H]21 | Not fulfilled
COC1C(O)CC(OC2CC(OC3CC(O[C@@H]4C(=O)c5c(cc6cc(OC7CC(OC8CC(O)C(O)C(C)O8)C(O)C(C)O7)c(C)c(O)c6c5O)CC4[C@H](OC)C(=O)C(C)=O)OC(C)C3O)OC(C)C2O)OC1C (some centres undefined) | Not fulfilled
CCOC(=O)c1nnn(-c2no[n+]([O-])c2-c2ccc(OC)cc2)c1COc1cccc2cccnc12 | Not fulfilled
O=C(O)c1cn(C2CC2)c2cc(N3CCN(C(=O)N4CCOCC4)CC3)c(F)cc2c1=O | Fulfilled
Nc1ccc(Br)cc1C(F)(F)F | Fulfilled
CCOC(=O)c1c(C)nc2ccccc2c1/C=C/c1ccc(F)cc1 | Fulfilled

---

- Test system: UO-31 renal
- EXPERIMENT: NCI-60 one-dose screen, 48 h
- RUN CONDITIONS: 10 µM unless noted
The panel holds about 83,000 compounds, 20% with a hit somewhere; the sample as a whole holds those more often. Active and inactive are the calls of the source. How the source made its calls: active means growth percent below 10; inactive means the rest.
Outcomes: active, inactive

MOLECULE | CLASS NAME
O=C1/C(=C/c2c[nH]c(=O)[nH]c2=O)SC(=S)N1Cc1ccccc1 | inactive
COCCn1cc(-c2csc(-c3c[nH]c4ccccc34)n2)c2cccnc21 | inactive
Cn1c(=O)c2[nH]c(SC/C(=N/O)c3ccc(Br)cc3)nc2n(C)c1=O | active
Fc1ccc2[nH]cc(-c3nc(-c4c[nH]c5c(Cl)nccc45)cs3)c2c1 | inactive
COc1cc2c(cc1OCCCN1CCN(C(=S)SCCC(C#N)(c3ccccc3)c3ccccc3)CC1)N=C[C@@H]1CCCN1C2=O | active
CN1CCN(Cc2ccc(NC(=O)c3cncc(C#Cc4cnc(N)cc4C#N)c3)cc2C(F)(F)F)CC1 | active
C#Cc1cccc(NC(=O)C2CCCCN2C(=O)CCl)c1 (stereo not given) | active
O=C1Nc2ccc(Cl)cc2/C1=C/c1ccc[nH]1 | inactive
CCN1C2CCC1/C(=C\c1ccccc1)C(=O)/C2=C/c1ccccc1 | inactive
O=CN1N=C(c2cccc(Nc3ccnc4cc(Cl)ccc34)c2)CC1c1ccc(Cl)cc1 (stereo not given) | inactive

Entry source: PubChem BioAssay (NCI)
